assay: Stability in human liver microsomes; format: in vitro ADME; details: half-life
Would you kindly list Stability in liver microsomes HLM for each of these molecules?

1. CCCCOC(=O)NS(=O)(=O)c1sc(CC(C)C)nc1-c1ccc(Cn2ccnc2-c2nccs2)cc1 :: >60 min
2. CCCCOC(=O)[N-]S(=O)(=O)c1ccc(CCC)cc1-c1ccc(Cn2ccnc2C(C)(C)O)cc1.[K+] [Example 31B] :: 20 min

List Stability in liver microsomes HLM for every entry below, keeping the order given.
1. CCCCOC(=O)NS(=O)(=O)c1sc(CC(C)C)nc1-c1ccc(Cn2ccnc2C(C)(C)O)cc1 [Example 17A]
2. CCCCOC(=O)NS(=O)(=O)c1sc(CC(C)C)nc1-c1ccc(Cn2ccnc2C(C)C)cc1

stdout:
1: >60 min; 2: >60 min

List Stability in liver microsomes HLM for every entry below, keeping the order given.
1. COC(=O)NS(=O)(=O)c1ccc(CC(C)C)cc1-c1ccc(Cn2ccnc2C(C)(C)C)cc1
2. CCCCOC(=O)[N-]S(=O)(=O)c1ccc(CC(C)C)cc1-c1ccc(Cn2ccnc2C(C)(C)O)cc1.[K+]
3. CCCCOC(=O)[N-]S(=O)(=O)c1sc(CC(C)C)cc1-c1ccc(Cn2ccnc2C(C)(C)C)cc1.[K+] [Example 11B]
4. COC(=O)NS(=O)(=O)c1sc(CC(C)C)nc1-c1ccc(Cn2ccnc2C(C)O)cc1 (centres unmarked)
5. COC(=O)NS(=O)(=O)c1sc(CC(C)C)nc1-c1ccc(Cn2ccnc2C(C)C)cc1
6. CCCCOC(=O)[N-]S(=O)(=O)c1ccc(CC(C)C)cc1-c1ccc(Cn2ccnc2C(C)(C)C)cc1.[K+]

stdout:
>60 min
28 min
11 min
>60 min
>60 min
11 min

* * *

assay: Stability in mouse liver microsomes; assay type: in vitro ADME; settings: half-life
Assay endpoint: Stability in liver microsomes MLM (min)
Give bare numbers, in min.

Worked cases, answers included:
1. CCCCOC(=O)[N-]S(=O)(=O)c1sc(CC(C)C)cc1-c1ccc(Cn2ccnc2C(C)(C)C)cc1.[K+] [Example 11B] :: 10
2. CCCCOC(=O)[N-]S(=O)(=O)c1sc(CC(C)C)cc1-c1ccc(Cn2ccnc2)cc1.[Na+] [Example 13, reference compound] :: 39
3. CCCCOC(=O)[N-]S(=O)(=O)c1ccc(CC(C)C)cc1-c1ccc(Cn2ccnc2C(C)(C)C)cc1.[K+] [Example 2B] :: 10

List Stability in liver microsomes MLM for every entry below, keeping the order given.
1. CCCCOC(=O)NS(=O)(=O)c1sc(CC(C)C)nc1-c1ccc(Cn2ccnc2C(C)(C)C)cc1 [Example 4]
2. COC(=O)[N-]S(=O)(=O)c1sc(CC(C)C)cc1-c1ccc(Cn2ccnc2C(C)(C)C)cc1.[K+] [Example 12B]
3. CCCCOC(=O)[N-]S(=O)(=O)c1ccc(CC(C)C)cc1-c1ccc(Cn2ccnc2C(C)(C)O)cc1.[K+] [Example 7B]

stdout:
1. 7
2. 39
3. 20

* * *

system: CYP3A; test: CYP450 inhibition assay, pooled human liver microsomes, midazolam substrate; details: both, human, pooled human liver microsomes, pH 7.4, probe midazolam
Assay endpoint: inhibition at 10 min, 10 µM (%)
Numbers only, in %.

1. COC(=O)[N-]S(=O)(=O)c1ccc(CC(C)C)cc1-c1ccc(Cn2ccnc2C(C)(C)O)cc1.[K+] :: 1.3
2. COC(=O)[N-]S(=O)(=O)c1sc(CC(C)C)cc1-c1ccc(Cn2ccnc2C(C)(C)C)cc1.[K+] [Example 12B] :: -11.6
3. CCCCOC(=O)[N-]S(=O)(=O)c1ccc(CC(C)C)cc1-c1ccc(Cn2ccnc2C(C)(C)C)cc1.[K+] :: 16
4. CCCCOC(=O)[N-]S(=O)(=O)c1ccc(CC(C)C)cc1-c1ccc(Cn2ccnc2C(C)(C)O)cc1.[K+] :: -10.7

List inhibition at 10 min, 10 µM for every entry below, keeping the order given.
1. CCCCOC(=O)NS(=O)(=O)c1ccc(CC(C)C)cc1-c1ccc(Cn2ccnc2C(C)(C)F)cc1
2. COC(=O)NS(=O)(=O)c1ccc(CC(C)C)cc1-c1ccc(Cn2ccnc2C(C)(C)F)cc1
3. CCCCOC(=O)[N-]S(=O)(=O)c1sc(CC(C)C)cc1-c1ccc(Cn2ccnc2C(C)(C)C)cc1.[K+] [Example 11B]
4. COC(=O)NS(=O)(=O)c1ccc(CC(C)C)cc1-c1ccc(Cn2ccnc2C(C)(C)C)cc1

stdout:
-11.7
9.98
-5.1
0

Reference source: patent US20230159467A1
